meta.source: paper PMC7177239

biological target: aryl hydrocarbon receptor (AhR) (Mus musculus, UniProt P30561, D371A); construct: mutant of mβAhR/pcDNA3, synthesized in vitro in rabbit reticulocyte lysate; test: [3H]TCDD saturation binding, hydroxyapatite assay
Sequence (P30561 10-848 D371A): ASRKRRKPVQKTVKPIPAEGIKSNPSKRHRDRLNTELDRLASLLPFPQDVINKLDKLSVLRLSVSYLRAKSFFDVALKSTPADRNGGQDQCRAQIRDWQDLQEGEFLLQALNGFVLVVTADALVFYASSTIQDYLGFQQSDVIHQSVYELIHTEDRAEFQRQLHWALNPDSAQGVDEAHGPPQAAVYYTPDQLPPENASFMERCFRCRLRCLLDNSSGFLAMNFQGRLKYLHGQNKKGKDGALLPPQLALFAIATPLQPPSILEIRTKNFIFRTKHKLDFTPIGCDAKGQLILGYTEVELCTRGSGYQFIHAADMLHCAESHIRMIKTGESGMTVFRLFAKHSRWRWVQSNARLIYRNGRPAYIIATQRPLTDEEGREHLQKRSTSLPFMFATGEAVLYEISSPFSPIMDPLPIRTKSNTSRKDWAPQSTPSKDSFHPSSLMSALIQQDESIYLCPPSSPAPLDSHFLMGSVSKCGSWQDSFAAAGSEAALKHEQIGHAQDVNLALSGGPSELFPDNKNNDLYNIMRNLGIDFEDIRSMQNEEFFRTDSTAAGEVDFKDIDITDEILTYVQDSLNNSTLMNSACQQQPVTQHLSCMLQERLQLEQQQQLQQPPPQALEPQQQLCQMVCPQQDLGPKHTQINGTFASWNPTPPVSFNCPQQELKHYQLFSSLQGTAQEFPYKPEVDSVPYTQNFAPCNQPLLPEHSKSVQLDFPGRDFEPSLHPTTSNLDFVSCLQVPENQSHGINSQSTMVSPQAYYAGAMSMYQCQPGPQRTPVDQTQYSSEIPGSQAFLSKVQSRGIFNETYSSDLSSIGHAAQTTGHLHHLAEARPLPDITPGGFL
pKd: −log10 of the molar value.
recorded-endpoint: pKd

>>> value_measured("Clc1cc2c(cc1Cl)Oc1cc(Cl)c(Cl)cc1O2")
8.30
